// data source = the Kinase Knowledgebase extract (Sharma et al. 2016)

# reported pIC50; entries follow
Target: MAPK14 (human)
pIC50: −log10 of the molar value.

Solved entries (count: 4):
> print(dat)
                                   compound   tested.target  quantity.measured  result
1  CC(C)NC(=O)c1csc(-c2c(-c3ccc(F)cc3)noc2CNC(=O)c2cccc3ccccc23)n1  MAPK14 (human)              pIC50  ≥ 6.00
2  CC(C)NC(=O)c1csc(-c2c(-c3ccc(F)cc3)noc2CNCCCN2CCCC2=O)n1  MAPK14 (human)              pIC50  ≥ 6.00
3  Cc1nc(-c2ccc(F)cc2)c(-c2nc(C(=O)NCc3ccc(Cl)c(Cl)c3)cs2)s1  MAPK14 (human)              pIC50  ≥ 6.00
4  CC(C)NC(=O)c1csc(-c2oc(CN3CCN(C(=O)C4CCCCC4)CC3)nc2-c2ccc(F)cc2)n1  MAPK14 (human)              pIC50  ≥ 6.00

Task item: Given the compound "Cc1nc(-c2ccc(F)cc2)c(-c2nc(C(=O)NCc3ccc(F)c(F)c3)cs2)s1" , what is its reported pIC50?
Reply: ≥ 6.00

Task item: Same read-out for "CC(=O)NCc1nc(-c2ccc(F)cc2)c(-c2nc(C(=O)NC(C)C)cs2)[nH]1" ?
Reply: ≥ 6.00
